# Assayed Target: T1, human FLT3 (human, UniProt P36888 27-541, limits assumed)
# T1 construct: Soluble analyte hFLT3 in SPR; also called hFLT3; huFlt3
# T1 sequence: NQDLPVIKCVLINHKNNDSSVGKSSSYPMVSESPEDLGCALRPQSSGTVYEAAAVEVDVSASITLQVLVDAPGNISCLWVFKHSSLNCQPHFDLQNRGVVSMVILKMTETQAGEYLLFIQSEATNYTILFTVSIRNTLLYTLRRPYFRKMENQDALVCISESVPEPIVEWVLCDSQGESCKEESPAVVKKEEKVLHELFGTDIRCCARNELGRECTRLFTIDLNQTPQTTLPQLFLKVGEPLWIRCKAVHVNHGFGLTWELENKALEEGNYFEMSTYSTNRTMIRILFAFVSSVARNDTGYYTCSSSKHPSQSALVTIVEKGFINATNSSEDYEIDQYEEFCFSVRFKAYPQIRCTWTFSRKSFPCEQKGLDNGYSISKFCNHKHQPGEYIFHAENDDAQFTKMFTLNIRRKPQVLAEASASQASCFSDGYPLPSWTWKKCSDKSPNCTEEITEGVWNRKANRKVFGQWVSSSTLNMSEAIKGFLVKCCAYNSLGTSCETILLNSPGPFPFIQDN
# Test Method Notes: SPR Biacore T200, 37C; scFv format
Experimental Endpoint: Kd (nM)
Dear colleague, please return just the value in nM, with no unit written.

For P1A5 (scFv format) (scFv) scFv: QVQLVQSGAEVKKPGSSVKVSCKASGGVFSRYALSWVRQAPGQGLEWMGGIIPMLGFANYAQKFQGRVTITADESTSTAYMELSSLRSEDTAVYYCATLDFGALDYWGQGTLVTVSSGGGGSGGGGSGGGGSEIVLTQSPGTLSLSPGERATLSCRASQAVDSSDLAWYQQKPGQAPRLLIYDAYTRPSGIPDRFSGSGSGTDFTLTISRLEPEDFAVYYCQQYGSSPLTFGGGTKLEIK , what is its reported Kd?
1.1

Next up: P14G2 (scFv format) (scFv) scFv: EVQLLESGGGLVQPGGSLRLSCAASGFTFSNYVMNWVRQAPGKGLEWVSAISGSGATTYYADSVKGRFTISRDNSKNTLYLQMNSLRAEDTAVYYCVSGLWAGGIWGQGTLVTVSSGGGGSGGGGSGGGGSDIQMTQSPSSLSASVGDRVTITCRASQSISSYLNWYQQKPGKAPKLLIYDASDLQRGVPSRFSGSGSGTDFTLTISSLQPEDFATYYCQQSYNTPWTFGQGTKVEIK
3.3

Next up: P9F1 (scFv format) (scFv, not shown: a dimerising Fc or GST; small tags and cut ends) scFv: EVQLLESGGGLVQPGGSLRLSCAASGFIFSSFAMSWVRQAPGKGLEWVSDISGSGASTYYADSVKGRFTISRDNSKNTLYLQMNSLRAEDTAVYYCASASGGSGSYWPYMDPWGQGTLVTVSSGGGGSGGGGSGGGGSQSVLTQPPSASGTPGQRVTISCSGSGSNIGSNYVYWYQQLPGTAPKLLIYRNNQRPSGVPDRFSGSKSGTSASLAISGLRSEDEADYYCAAWDGSLSRPVFGTGTKLTVL
126
